B1: Ribonuclease HI, P0A7Y4 (parent)
chain: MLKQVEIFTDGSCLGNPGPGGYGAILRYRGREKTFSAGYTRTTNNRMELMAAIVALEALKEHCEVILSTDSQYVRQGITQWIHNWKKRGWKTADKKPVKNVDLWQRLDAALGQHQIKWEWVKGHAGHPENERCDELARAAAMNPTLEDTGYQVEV

variants of: B1; settings: Escherichia coli (strain K12); pH 5.5; Thermal; CD; Potassium phosphate 2 mM; KF 5 mM; reversible: yes; structure 2RN2; whole UniProt chain shown
Please go through the items and note down their Tm.
Numbers only, in °C.

variant.code: R27A
result.units: °C
Tm: 42.2

Batch request: Tm per item, same order as input.
1. Q105G
2. I53A

Output:
[38.2, 35.7]

Value of Tm reported for the variant D10A is 62.6
